REPORTED METRIC: melting point

COMPOUND	OBS VALUE
CC(C)[C@H](NC(=O)[C@H](CC(=O)OC(C)(C)C)NC(=O)CCCN)C(=O)OC(C)(C)C	99 to 100 °C
COc1ccc(CN2C(=O)C3CC(c4ccc([N+](=O)[O-])cc4)(C3)C2=O)cc1	146 to 147 °C
CCOC(=O)c1c(N)n(C)c2ccccc12	132 to 134 °C
COc1ccc(-c2coc3ccc(-c4nnc(S)o4)cc23)cc1	204 to 205 °C
CSCCOc1c(-c2ccc(S(C)(=O)=O)cc2)cnn(CC(F)(F)F)c1=O	103 to 105 °C

Task: Tell me the measured melting point of Cc1ccc(CC2CCN(C(=O)CNc3ccc4c(c3)OCC(=O)N4)CC2)cc1 , please.
Result: 206 to 208 °C

Task: // melting point lookup, key: O=C(O)c1cc2c3ccccc3n(-c3ccccc3)c2s1
Result: 206 to 207 °C

Task: Using the record for COC1=CC(=O)C(Br)=CC1=O , report its melting point.
Result: 184 to 186 °C

Task: Param item = CCCCCCC(C(=O)O)n1cnc(NC(=O)c2cccc(O)c2S(=O)(=O)O)c1 (stereo not given) ; retrieve measured melting point.
Result: 238 to 240 °C

Task: What melting point value was documented for this compound, O=C(O)C1=Cc2cc(Cl)c(Oc3ccc(C(=O)O)cc3)cc2OC1C(F)(F)F (stereo not given) ?
Result: > 300 °C
